Consider the following molecules and their measured viability, T/C readings.
test system: T-47D spheroids with HUVEC/MSC, viability; test: Anticancer human tumor T-47D cell line growth inhibition [PI3K]; details: second compound 0.316 µM; first compound 0.1 µM; stronger effect = lower value;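 note: spheroids exposed to agents for seven days before reading; percent of DMSO vehicle control luminescence so 100% = untreated growth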

MOLECULE: Cn1nccc1Nc1nccc(-c2ccn(C(CO)c3ccc(Cl)c(F)c3)c(=O)c2)n1 (stereo not given) + COc1c(OCCCN2CCOCC2)ccc2c3n(c(=NC(=O)c4cnc(N)nc4)nc12)CCN3
viability, T/C / %: 20.4

MOLECULE: CCCS(=O)(=O)Nc1ccc(F)c(C(=O)c2c[nH]c3ncc(-c4ccc(Cl)cc4)cc23)c1F + COc1c(OCCCN2CCOCC2)ccc2c3n(c(=NC(=O)c4cnc(N)nc4)nc12)CCN3
viability, T/C / %: 22.1

MOLECULE: CC1(C)CCC(CN2CCN(c3ccc(C(=O)NS(=O)(=O)c4ccc(NCC5CCOCC5)c([N+](=O)[O-])c4)c(Oc4cnc5[nH]ccc5c4)c3)CC2)=C(c2ccc(Cl)cc2)C1 + Cc1nc(NC(=O)N2CCCC2C(N)=O)sc1-c1ccnc(C(C)(C)C(F)(F)F)c1
viability, T/C / %: 101

MOLECULE: CC(C)n1nc(-c2ccc3oc(N)nc3c2)c2c(N)ncnc21 + CC(Nc1ccc2c(c1)OCCn1cc(N3C(=O)OCC3C(F)F)nc1-2)C(N)=O
viability, T/C / %: 5.87

MOLECULE: CC1(C)CCC(Nc2ncc(C(F)(F)F)c(-c3c[nH]c4c(P(C)(C)=O)c(C#N)ccc34)n2)CN1 (stereo not given) + CC(Nc1ncnc2nc[nH]c12)c1cc2cccc(Cl)c2c(=O)n1-c1ccccc1
viability, T/C / %: 70.9

* * *

tested on: T-47D spheroids with HUVEC/MSC, viability; test: Anticancer human tumor T-47D cell line growth inhibition [PI3K]; details: second compound 10 µM; first compound 0.0316 µM; stronger effect = lower value;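 note: spheroids exposed to agents for seven days before reading; percent of DMSO vehicle control luminescence so 100% = untreated growth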

COMPOUND: CC(Cn1ccc(-c2ccc(C#N)c(Cl)c2)n1)NC(=O)c1cc(C(C)O)[nH]n1 (stereo unspecified) + CC(Nc1ncnc2nc[nH]c12)c1cc2cccc(Cl)c2c(=O)n1-c1ccccc1
ENDPOINT_UNIT: %
viability, T/C: 80.7
//
COMPOUND: CC(C)n1nc(-c2ccc3oc(N)nc3c2)c2c(N)ncnc21 + CC(Nc1ncnc2nc[nH]c12)c1cc2cccc(Cl)c2c(=O)n1-c1ccccc1
ENDPOINT_UNIT: %
viability, T/C: 61.4
//
COMPOUND: CC(Cn1ccc(-c2ccc(C#N)c(Cl)c2)n1)NC(=O)c1cc(C(C)O)[nH]n1 (stereo unspecified) + Cc1nc(NC(=O)N2CCCC2C(N)=O)sc1-c1ccnc(C(C)(C)C(F)(F)F)c1
ENDPOINT_UNIT: %
viability, T/C: 36
//
COMPOUND: CC1(C)CCC(Nc2ncc(C(F)(F)F)c(-c3c[nH]c4c(P(C)(C)=O)c(C#N)ccc34)n2)CN1 (stereo unspecified) + CC(Nc1ncnc2nc[nH]c12)c1cc2cccc(Cl)c2c(=O)n1-c1ccccc1
ENDPOINT_UNIT: %
viability, T/C: 47.4
//
COMPOUND: C#Cc1c(F)ccc2cc(O)cc(-c3ncc4c(N5CC6CCC(C5)N6)nc(OCC56CCCN5CC(F)C6)nc4c3F)c12 (stereo unspecified) + Cc1nc(NC(=O)N2CCCC2C(N)=O)sc1-c1ccnc(C(C)(C)C(F)(F)F)c1
ENDPOINT_UNIT: %
viability, T/C: 38.4
//
COMPOUND: C#Cc1c(F)ccc2cc(O)cc(-c3ncc4c(N5CC6CCC(C5)N6)nc(OCC56CCCN5CC(F)C6)nc4c3F)c12 (stereo unspecified) + CC(Nc1ncnc2nc[nH]c12)c1cc2cccc(Cl)c2c(=O)n1-c1ccccc1
ENDPOINT_UNIT: %
viability, T/C: 107
//
COMPOUND: CC(C)NCC(C(=O)N1CCN(c2ncnc3c2C(C)CC3O)CC1)c1ccc(Cl)cc1 (stereo unspecified) + CC(Nc1ncnc2nc[nH]c12)c1cc2cccc(Cl)c2c(=O)n1-c1ccccc1
ENDPOINT_UNIT: %
viability, T/C: 93.5
//
COMPOUND: CC(=O)c1c(C)c2cnc(Nc3ccc(N4CCNCC4)cn3)nc2n(C2CCCC2)c1=O + CC(Nc1ncnc2nc[nH]c12)c1cc2cccc(Cl)c2c(=O)n1-c1ccccc1
ENDPOINT_UNIT: %
viability, T/C: 80.6
//
COMPOUND: CC1(C)CCC(CN2CCN(c3ccc(C(=O)NS(=O)(=O)c4ccc(NCC5CCOCC5)c([N+](=O)[O-])c4)c(Oc4cnc5[nH]ccc5c4)c3)CC2)=C(c2ccc(Cl)cc2)C1 + CC(Nc1ncnc2nc[nH]c12)c1cc2cccc(Cl)c2c(=O)n1-c1ccccc1
ENDPOINT_UNIT: %
viability, T/C: 96.5
//
COMPOUND: Cn1ncnc1[C@H]1c2n[nH]c(=O)c3cc(F)cc(c23)N[C@@H]1c1ccc(F)cc1 + CC(Nc1ncnc2nc[nH]c12)c1cc2cccc(Cl)c2c(=O)n1-c1ccccc1
ENDPOINT_UNIT: %
viability, T/C: 102
//
COMPOUND: CCN1CCN(Cc2ccc(Nc3ncc(F)c(-c4cc(F)c5nc(C)n(C(C)C)c5c4)n3)nc2)CC1 + Cc1nc(NC(=O)N2CCCC2C(N)=O)sc1-c1ccnc(C(C)(C)C(F)(F)F)c1
ENDPOINT_UNIT: %
viability, T/C: 24.5
//
COMPOUND: CC(=O)c1c(C)c2cnc(Nc3ccc(N4CCNCC4)cn3)nc2n(C2CCCC2)c1=O + Cc1nc(NC(=O)N2CCCC2C(N)=O)sc1-c1ccnc(C(C)(C)C(F)(F)F)c1
ENDPOINT_UNIT: %
viability, T/C: 23.1
//
COMPOUND: Cn1nccc1Nc1nccc(-c2ccn(C(CO)c3ccc(Cl)c(F)c3)c(=O)c2)n1 (stereo unspecified) + CC(Nc1ncnc2nc[nH]c12)c1cc2cccc(Cl)c2c(=O)n1-c1ccccc1
ENDPOINT_UNIT: %
viability, T/C: 97.1
//
COMPOUND: CC1(C)CCC(CN2CCN(c3ccc(C(=O)NS(=O)(=O)c4ccc(NCC5CCOCC5)c([N+](=O)[O-])c4)c(Oc4cnc5[nH]ccc5c4)c3)CC2)=C(c2ccc(Cl)cc2)C1 + Cc1nc(NC(=O)N2CCCC2C(N)=O)sc1-c1ccnc(C(C)(C)C(F)(F)F)c1
ENDPOINT_UNIT: %
viability, T/C: 40.1
//
COMPOUND: CNC(=O)c1ccc(N2C(=S)N(c3ccc(C#N)c(C(F)(F)F)c3)C(=O)C2(C)C)cc1F + Cc1nc(NC(=O)N2CCCC2C(N)=O)sc1-c1ccnc(C(C)(C)C(F)(F)F)c1
ENDPOINT_UNIT: %
viability, T/C: 43.2
//
COMPOUND: Cn1ncc(Cl)c1-c1cc(C(=O)NC(CN)Cc2cccc(F)c2)sc1Cl (stereo unspecified) + Cc1nc(NC(=O)N2CCCC2C(N)=O)sc1-c1ccnc(C(C)(C)C(F)(F)F)c1
ENDPOINT_UNIT: %
viability, T/C: 35.1
//
COMPOUND: CC1(C)CCC(Nc2ncc(C(F)(F)F)c(-c3c[nH]c4c(P(C)(C)=O)c(C#N)ccc34)n2)CN1 (stereo unspecified) + Cc1nc(NC(=O)N2CCCC2C(N)=O)sc1-c1ccnc(C(C)(C)C(F)(F)F)c1
ENDPOINT_UNIT: %
viability, T/C: 30.3
//
COMPOUND: CCCS(=O)(=O)Nc1ccc(F)c(C(=O)c2c[nH]c3ncc(-c4ccc(Cl)cc4)cc23)c1F + Cc1nc(NC(=O)N2CCCC2C(N)=O)sc1-c1ccnc(C(C)(C)C(F)(F)F)c1
ENDPOINT_UNIT: %
viability, T/C: 35.3
//
COMPOUND: CC(C)NCC(C(=O)N1CCN(c2ncnc3c2C(C)CC3O)CC1)c1ccc(Cl)cc1 (stereo unspecified) + Cc1nc(NC(=O)N2CCCC2C(N)=O)sc1-c1ccnc(C(C)(C)C(F)(F)F)c1
ENDPOINT_UNIT: %
viability, T/C: 37.4
//
COMPOUND: CCN1CCN(Cc2ccc(Nc3ncc(F)c(-c4cc(F)c5nc(C)n(C(C)C)c5c4)n3)nc2)CC1 + CC(Nc1ncnc2nc[nH]c12)c1cc2cccc(Cl)c2c(=O)n1-c1ccccc1
ENDPOINT_UNIT: %
viability, T/C: 82.2
//
COMPOUND: C=CC(=O)N1CCN(c2nc(=O)n(-c3c(C)ccnc3C(C)C)c3nc(-c4c(O)cccc4F)c(F)cc23)C(C)C1 (stereo unspecified) + CC(Nc1ncnc2nc[nH]c12)c1cc2cccc(Cl)c2c(=O)n1-c1ccccc1
ENDPOINT_UNIT: %
viability, T/C: 100
